Here, each record is paired with measured TG (triglyceride) data.
Tested on: Fatty Liver Diseases of SD Rats
Test: Blood serum lipids in SD rats given lipid emulsion (fatty liver model)
Type: in vivo
Parameters: unit not given here
Applied Conditions: blood serum after 14 days of continuous administration; compounds 80 mg/kg, Obeticholic Acid 10 mg/kg, intragastric; lipid emulsion continued

1) CC[C@H]1[C@@H](O)[C@@H]2[C@H](CC[C@]3(C)[C@@H]([C@H](C)CCC(=O)O)CC[C@@H]23)[C@@]2(C)CC[C@@H](O)C[C@@H]12 [Obeticholic Acid, Obeticholic acid, reference compound]
0.52 ± 0.06
2) Cc1ccc(C)c(OCCCC(C)(C)C(=O)NCC(=O)c2ccc(OC(=O)c3cccnc3)c(O)c2)c1 [Compound 22]
0.57 ± 0.27

Record request: TG (triglyceride) value, item Cc1ccc(C)c(OCCCC(C)(C)C(=O)Nc2ccc(C(=O)CNC(=O)c3cccnc3)cc2)c1 [Compound 12]
0.33 ± 0.05

CC(=O)c1ccc(NC(=O)C(C)(C)CCCOc2cc(C)ccc2C)cc1 [Compound 02] , same question.
0.51 ± 0.19

Cc1ccc(C)c(OCCCC(C)(C)C(=O)NCC(=O)c2ccc(O)c(O)c2)c1 [Compound 21] , same question.
0.80 ± 0.13

====

Here, each record is paired with measured HDL-C (high density lipoprotein) data.
System: Fatty Liver Diseases of SD Rats
Test: Blood serum lipids in SD rats given lipid emulsion (fatty liver model)
Format: in vivo
Design: unit not given here
Applied Conditions: blood serum after 14 days of continuous administration; compounds 80 mg/kg, Obeticholic Acid 10 mg/kg, intragastric; lipid emulsion continued
Could you respond with only the numeric value?

// known answers, use as guide
1) CC(=O)c1ccc(NC(=O)C(C)(C)CCCOc2cc(C)ccc2C)cc1 [Compound 02]
1.74
2) Cc1ccc(C)c(OCCCC(C)(C)C(=O)NCC(=O)c2ccc(OC(=O)c3cccnc3)c(O)c2)c1 [Compound 22]
1.47
3) Cc1ccc(C)c(OCCCC(C)(C)C(=O)NCC(=O)c2ccc(O)c(O)c2)c1 [Compound 21]
1.99
4) Cc1ccc(C)c(OCCCC(C)(C)C(=O)Nc2ccc(C(=O)CNC(=O)c3cccnc3)cc2)c1 [Compound 12]
1.92

# evaluate next
Record request: HDL-C (high density lipoprotein) value, item CC[C@H]1[C@@H](O)[C@@H]2[C@H](CC[C@]3(C)[C@@H]([C@H](C)CCC(=O)O)CC[C@@H]23)[C@@]2(C)CC[C@@H](O)C[C@@H]12 [Obeticholic Acid, Obeticholic acid, reference compound]
1.68

====

Test system: fatty liver of the SD rats
Test: Pathological sections and grading of fatty liver of SD rats
Type: in vivo
Applied Conditions: animal 3; compounds 80 mg/kg, Sim 10 mg/kg, OCA 10 mg/kg
Quantity Name: Pathological grading: Steatotic hepatocytes

Record request: Pathological grading: Steatotic hepatocytes value, item Cc1ccc(C)c(OCCCC(C)(C)C(=O)Nc2ccc(C(=O)CNC(=O)c3cccnc3)cc2)c1 [Compound 12]
0

====

Tested on: Fatty Liver Diseases of SD Rats
Test: Liver functions of lipid-emulsion SD rats after administration for 4 weeks
Format: in vivo
Set-up: unit not given here
Applied Conditions: compounds 80 mg/kg, Obeticholic Acid 10 mg/kg
Quantity Name: TBIL
Could you respond with only the numeric value?

1) Cc1ccc(C)c(OCCCC(C)(C)C(=O)NCC(=O)c2ccc(O)c(O)c2)c1 [Compound 21]
3.23

Record request: TBIL value, item CC[C@H]1[C@@H](O)[C@@H]2[C@H](CC[C@]3(C)[C@@H]([C@H](C)CCC(=O)O)CC[C@@H]23)[C@@]2(C)CC[C@@H](O)C[C@@H]12 [Obeticholic Acid, Obeticholic acid, reference compound]
4.06

Cc1ccc(C)c(OCCCC(C)(C)C(=O)Nc2ccc(C(=O)CNC(=O)c3cccnc3)cc2)c1 [Compound 12] , same question.
3.25

CC(=O)c1ccc(NC(=O)C(C)(C)CCCOc2cc(C)ccc2C)cc1 [Compound 02] , same question.
1.98

Cc1ccc(C)c(OCCCC(C)(C)C(=O)NCC(=O)c2ccc(OC(=O)c3cccnc3)c(O)c2)c1 [Compound 22] , same question.
2.97
